# Test system: NCI-H226
# measurementNotes: NCI tumour cell line growth inhibition, 48 h
The source made the active and inactive calls. Cut-off read from the data, not from the text of the source: active = GI50 up to about 1.1 µM and inactive = higher.
// classify into active, inactive

{"compound": "C/C=C/[C@@]1(OC(=O)c2ccccc2)C[C@@H]2CCCC[C@@H]21", "classLabel": "inactive"}

## Task Hello, I am checking results. What call was entered for COC1=CC(=O)C(C2CC(=O)c3c(O)cc(O)cc3O2)=CC1=O (stereo not drawn) ?
## Result inactive

----------
# Tested on: NCI-H23
# measurementNotes: NCI tumour cell line growth inhibition, 48 h
Activity calls are given as the source filed them. Rule as the data show it: active = GI50 up to about 1.1 µM and inactive = higher.
readoutType: GI50

Example cases with answers are listed next.
{"compound": "CCOC(=O)c1cc(C2CCN(c3ccccc3)C2=O)c(C(=O)/C=C(/C)N)[nH]1 (centres undefined)", "readoutType": "GI50", "endpointValue": "92.3 µM (inactive)"}
{"compound": "Oc1ccc(-c2nc(-c3cccnc3)c(-c3ccc(F)cc3)[nH]2)cc1", "readoutType": "GI50", "endpointValue": "12.7 µM (inactive)"}
{"compound": "CC(=O)OCC1OC(OC2C(CSC3OC(COC(C)=O)C(OC(C)=O)C(OC(C)=O)C3OC(C)=O)OC(OC(C)=O)C(OC(C)=O)C2OC(C)=O)C(OC(C)=O)C(OC(C)=O)C1OC(C)=O (centres undefined)", "readoutType": "GI50", "endpointValue": "> 100 µM (inactive)"}
{"compound": "CCOC(=O)c1nc2cc(Cl)ccc2[nH]c1=O", "readoutType": "GI50", "endpointValue": "> 100 µM (inactive)"}
{"compound": "O=C(Oc1cncc(Cl)c1)c1cc2ccccc2sc1=O", "readoutType": "GI50", "endpointValue": "58.7 µM (inactive)"}
{"compound": "O=C1CC(CC(=O)c2ccc(Br)cc2)C(O)=C1C(=O)c1ccc(Br)cc1 (centres undefined)", "readoutType": "GI50", "endpointValue": "87.7 µM (inactive)"}
{"compound": "O=C(Nc1ccccc1Cl)c1cc(S(=O)(=O)Nc2n[nH]c(=O)n2-c2ccccc2)c(S)cc1Cl", "readoutType": "GI50", "endpointValue": "> 100 µM (inactive)"}
{"compound": "N#C[C@H](c1ccccn1)c1nc2ccccc2nc1Cl", "readoutType": "GI50", "endpointValue": "> 100 µM (inactive)"}

Entry `CN(Cc1cnc2nc(N)nc(N)c2n1)c1ccc(C(=O)NCCCS(=O)(=O)O)cc1` , GI50 reported as > 100 µM (inactive)

----------
# Tested on: LXFL 529
# measurementNotes: NCI tumour cell line growth inhibition, 48 h
Active and inactive are the calls of the source. Rule as the data show it: active = GI50 up to about 1.1 µM and inactive = higher.
Would you mind answering with one of these outcomes? true (1) (active), false (0) (inactive)

These recorded examples may help you get a feel for the data.
{"molecule": "CC(=O)OC1C(=O)C(O)C(C)OC1O[C@@H]1C[C@@]2(C)[C@@H]3CC=C4[C@@H](C[C@H](O)C(=O)C4(C)C)[C@]3(C)C(=O)C[C@]2(C)[C@H]1[C@@](C)(O)C(=O)/C=C/C(C)(C)O (stereo not given in full)", "targetSystem": "LXFL 529", "classLabel": "true (1)"}
{"molecule": "C[N+](C)(C)CC(=O)N/N=C(\\C(=O)NC1=C(Cl)C(=O)c2ccccc2C1=O)C(C#N)c1csc(-c2ccc([N+](=O)[O-])cc2)n1 (stereo not given)", "targetSystem": "LXFL 529", "classLabel": "false (0)"}

## Task # outcome recorded in this test, key = `CN(/N=C/c1ccnc2ccccc12)c1c([N+](=O)[O-])cc([N+](=O)[O-])cc1[N+](=O)[O-]`
## Result false (0)

## Task Please indicate how the test categorized O=C(O)C1(c2ccccc2)CCCNCC1 (stereo not given) .
## Result false (0)

## Task Which outcome was assigned to `O=C(O)/C(=C/C=C/c1ccccc1)c1csc(-c2nc(/C(=C\C=C\c3ccccc3)C(=O)O)cs2)n1` in this test?
## Result false (0)

## Task Hello, I am checking results. What call was entered for `CCOC(=O)C(=O)Nc1c(C(C)C)cccc1C(C)C` ?
## Result false (0)
